Could you please report measured z-score for the items listed next?
test: E. coli DRC41 culture turbidity changes, primary screen, E. coli filamentation inducer project, strain DRC41, OD650, 48 h (AID 1152);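 further: E. coli MC1000 strain DRC41 lacking acrAB efflux pump and sulA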; settings: E. coli DRC41 (acrAB sulA), higher = more signal, called active from +8 up or from −8 down
Answer with the value's number alone.

Ask: Data request, read-out z-score, for COC(=O)CC=C[C@@H](C)[C@@H](C=NOC(C)CN1CCCc2nc(C)c(C)cc21)NS(=O)(=O)c1ccc(C)cc1 (stereo not given in full)
Result: 0.364

Ask: Data request, read-out z-score, for O=C1[C@H]2[C@H]3[C@H](O)[C@H](O)CC(=NOC[C@@H](O)COCc4ccco4)[C@@H]3CC[C@H]2C(=O)N1c1cccc(Oc2ccccc2)c1
Result: -1.26

Ask: Data request, read-out z-score, for C[C@@H]1CC[C@H]2C(=O)OC(CN3C(=O)c4ccccc4C3=O)CN2[C@H]1c1ccc(Br)cc1 (stereo not given in full)
Result: 0.634

Ask: Data request, read-out z-score, for CCOC(=O)[C@H](CC(C)C)NC(=O)CCC1CC(OC(=O)NCCc2ccc(F)cc2)CC2(CCCC(COC(=O)NCCOC)O2)O1 (stereo not given in full)
Result: -1.39

Ask: Data request, read-out z-score, for CCOC(=O)NN=C1C[C@@H](O)[C@@H](O)[C@@H]2[C@@H]3C(=O)N(c4ccc(F)cc4F)C(=O)[C@@H]3CC[C@H]12
Result: -0.57

Ask: Data request, read-out z-score, for CCN1C(=O)[C@H]2[C@H]3[C@H](O)[C@H](O)CC(=NOC(C)CN4CCCc5nc(C)c(C)cc54)[C@@H]3CC[C@H]2C1=O (stereo not given in full)
Result: 0.223

Ask: Data request, read-out z-score, for CCOC(=O)[C@H](Cc1ccccc1)NC(=O)CCC1CC(OC(=O)NCc2ccc3c(c2)OCO3)CC2(CCCC(COC(=O)NCCc3ccc(Cl)cc3)O2)O1 (stereo not given in full)
Result: -0.393

Ask: Data request, read-out z-score, for COC(=O)[C@H](C)NC(=O)CCC1CC(OC(=O)NCc2ccc3c(c2)OCO3)CC2(CCCC(COC(=O)NCCc3ccc(Cl)cc3)O2)O1 (stereo not given in full)
Result: -0.51

Ask: Data request, read-out z-score, for C[C@H]1CC[C@@H](C(=O)O)N[C@@H]1c1ccc(C#Cc2ccccc2)cc1
Result: -0.553

Ask: Data request, read-out z-score, for COc1cccc([C@H]2Oc3ccc(OC)cc3C(=NOCC[C@@H]3C=C[C@H](OC(C)=O)[C@@H](COC(C)=O)O3)[C@@H]2O)c1
Result: -1.05

Ask: Data request, read-out z-score, for CC(C)=NO[C@@H](C)c1cn([C@H](CO)Cc2ccccc2)nn1
Result: -1.99

Ask: Data request, read-out z-score, for CCc1cc2c(nc1CC)CCN(CCC(C)=NOCC[C@@H]1C=C[C@H](OC(C)=O)[C@@H](COC(C)=O)O1)C2
Result: -0.842

Ask: Data request, read-out z-score, for C#CCCCON=C1[C@H]2CCn3c(=O)n([C@@H](CC)c4ccccc4)c(=O)n3[C@H]2[C@H](O)[C@@H]2O[C@H]12
Result: -1.02

Ask: Data request, read-out z-score, for O=C1CCCC=C1C(O)c1ccc([N+](=O)[O-])cc1 (stereo not given)
Result: 0.134

Ask: Data request, read-out z-score, for CCOC(=O)[C@H](CC(C)C)NC(=O)CCC1CC(OC(=O)NCc2ccc3c(c2)OCO3)CC2(CCCC(COC(=O)NCCc3ccc(Cl)cc3)O2)O1 (stereo not given in full)
Result: 0.386
